TEST DETAILS: in vitro
EXPERIMENTAL SETUP: human, hela cells, % viability
READOUT LABEL: viability at 28.5 h, 10 µM (%)

compound=COc1c(Cl)cc(Cl)cc1C(=O)NC(=S)Nc1sc2c(c1C#N)CCCC2 numeric_value=84.4
compound=COc1cc(S(=O)(=O)NC2CC(C)(C)NC(C)(C)C2)ccc1Br numeric_value=87.4
compound="C=CCOc1ccc(C(=O)C2=C(O)C(=O)N(Cc3cccnc3)C2c2ccc(Cl)cc2)c(C)c1 (stereo not drawn)" numeric_value=99.6
compound=O=C(Nc1ccccc1C(=O)Nc1ccccc1C(=O)O)c1ccccc1 numeric_value=91.1
compound=O=C1N[C@@H](Cc2ccc(F)cc2)C(=O)N2CCN(C(=O)N3CCOCC3)C[C@H]12 numeric_value=109
compound="CC#CC(=O)N1CCCC(Cc2ccc(F)cc2F)(C(=O)OCC)C1 (stereo not drawn)" numeric_value=111
compound=C=CCSc1nc2ccccc2c(=O)n1CCc1ccccc1 numeric_value=81.9
compound=c1ccc(Oc2ccc(Nc3ccc(-c4cccc5cccnc45)cn3)cc2)cc1 numeric_value=105
compound=COc1ccccc1-c1cnc(Nc2ccc(N3CCOCC3)cc2)c2nccn12 numeric_value=99.9
compound=O=C(Cc1ccc(F)cc1Cl)N1CCC(O)(c2ccccn2)CC1 numeric_value=98.1
compound="Cn1c(=O)n(C)c2cc(S(=O)(=O)NCC3(O)CCCNCC3)ccc21 (stereo not drawn)" numeric_value=84.9
compound=COc1ccc(NC2=C(NCCO)C(=O)c3ccccc3C2=O)cc1 numeric_value=102
compound=O=C(CSc1nnc(COc2ccccc2)o1)c1cccc([N+](=O)[O-])c1 numeric_value=104
compound=O=C(O)c1ccc(-c2ccc(/C=C/c3[nH]c(=O)[nH]c(=O)c3[N+](=O)[O-])o2)cc1Cl numeric_value=94.9
compound=COCC(=O)NC[C@H]1C[C@@H]2CCN1C[C@@H]2c1cc(-c2ccccc2)nc(C)n1 numeric_value=89.3
compound="Cc1nc2c(C(=O)NCC3CCCO3)cnn2c(C)c1Cc1cccnc1 (stereo not drawn)" numeric_value=85.8
compound="CC1Cc2ccccc2N1C(=O)CSc1nnc(N)s1 (stereo not drawn)" numeric_value=94.3
compound=COc1ccc(-c2noc([C@@H]3Cc4[nH]cnc4CN3C(=O)CCC(=O)O)n2)cc1 numeric_value=90.3

----------
TEST DETAILS: in vitro
EXPERIMENTAL SETUP: human, hela cells, % viability
READOUT LABEL: viability at 28.5 h, 10 µM

compound="CC(=O)Nc1ccc(OCC(O)CNC2CCCC2)cc1 (stereo not shown) [CBK267857C]" result=87.6%
compound=c1ccc(CN2CC[C@H](c3nnc(-c4cccnc4)o3)C2)cc1 result=85.6%
compound=COc1ccccc1OCc1ccccc1 result=105%
compound=CCN1CCN(C(=O)CN(CC)S(=O)(=O)c2ccc(Cl)cc2)CC1 result=88.4%
compound="O=C(O)CC(c1ccccc1)c1ccc2c(c1)OCO2 (stereo not shown)" result=87.8%
compound=O=C(OCc1ccc([N+](=O)[O-])cc1)C1CCN(S(=O)(=O)c2cccc3cccnc23)CC1 result=115%
compound=COc1cccc2c1ncc1c(=O)nc(N)sc12 result=88.9%
compound=CSCC[C@@H]1CN2CCC[C@H]2CN1Cc1cn(C)nc1C result=95.5%
compound=CN(C)CCN(C)C(=O)c1cc(Br)cnc1N1CCN(C(=O)c2ccco2)CC1 result=93.8%
compound=CC(=O)N1CCc2cc(-c3cc4c(C)cccn4c3)ccc21 result=96%
